Hello, the source for this data is ChEMBL document CHEMBL3867488, in case you need it.

biological target: UniProt:P55055; assay: Agonist activity at human LXR-beta expressed in African green monkey CV1 cells measured after 18 to 20 hrs by luciferase reporter gene assay; type: cell-based, CV-1
Sequence (P55055 whole entry): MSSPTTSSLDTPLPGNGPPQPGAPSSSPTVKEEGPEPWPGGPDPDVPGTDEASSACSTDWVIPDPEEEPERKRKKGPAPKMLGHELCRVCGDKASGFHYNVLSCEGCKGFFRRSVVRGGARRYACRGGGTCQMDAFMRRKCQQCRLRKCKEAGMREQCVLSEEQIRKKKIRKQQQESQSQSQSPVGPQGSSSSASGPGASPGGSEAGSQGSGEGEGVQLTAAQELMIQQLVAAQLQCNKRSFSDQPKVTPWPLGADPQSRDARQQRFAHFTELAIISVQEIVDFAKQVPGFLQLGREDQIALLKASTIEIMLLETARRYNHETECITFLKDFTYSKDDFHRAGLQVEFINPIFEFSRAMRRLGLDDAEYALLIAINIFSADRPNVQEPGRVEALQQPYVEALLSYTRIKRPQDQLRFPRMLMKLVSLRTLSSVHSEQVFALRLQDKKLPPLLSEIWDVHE
pEC50: −log10 of the molar value.
QUANTITY_MEASURED: pEC50

Example entries and their recorded answers appear below.
## Input Would you mind telling me what pEC50 value was observed for CC(c1c(Cl)cccc1Cl)c1nc(C(C)(C)O)cn1-c1ccc(-c2cc(F)c(CO)c(S(C)(=O)=O)c2)cc1F (stereo unspecified) ?
## Output 7.60

## Input Would you mind telling me what pEC50 value was observed for CC(C)(O)c1cn(-c2ccc(-c3cc(F)c(CO)c(S(C)(=O)=O)c3)cc2)c(C(C)(C)c2c(Cl)cccc2Cl)n1 ?
## Output 7.38

## Input Would you mind telling me what pEC50 value was observed for CC(C)(O)c1cn(-c2ccc(-c3cc(F)c(CO)c(S(C)(=O)=O)c3)cc2)c(Cc2c(Cl)cccc2Cl)n1 ?
## Output 6.85

## Input Would you mind telling me what pEC50 value was observed for CC(O)c1ccc(-c2ccc(-n3cc(C(C)(C)O)nc3C(C)(C)c3ccccc3Cl)cc2)cc1S(C)(=O)=O (stereo unspecified) ?
## Output 6.66

[1] CC(C)(O)c1cn(-c2ccc(-c3cccc(S(C)(=O)=O)c3)cc2)c(C(C)(C)c2c(Cl)cccc2Cl)n1
[2] CC(C)(O)c1cn(-c2ccc(-c3cc(F)c(CO)c(S(C)(=O)=O)c3)cc2)c(C(C)(C)c2ccccc2Cl)n1
## Input Lab note: record which item had the higher pEC50, 1 or 2 . State the label of the item chosen.
## Output 2
(2: 7.14, 1: 6.77)

====

target: UniProt:P02768; assay: Binding affinity to human serum albumin at 1 uM measured after 4 hrs by equilibrium dialysis method relative to control; format: ADME; conditions: isolated protein, 4 h, 1 µM
Sequence (P02768 whole entry): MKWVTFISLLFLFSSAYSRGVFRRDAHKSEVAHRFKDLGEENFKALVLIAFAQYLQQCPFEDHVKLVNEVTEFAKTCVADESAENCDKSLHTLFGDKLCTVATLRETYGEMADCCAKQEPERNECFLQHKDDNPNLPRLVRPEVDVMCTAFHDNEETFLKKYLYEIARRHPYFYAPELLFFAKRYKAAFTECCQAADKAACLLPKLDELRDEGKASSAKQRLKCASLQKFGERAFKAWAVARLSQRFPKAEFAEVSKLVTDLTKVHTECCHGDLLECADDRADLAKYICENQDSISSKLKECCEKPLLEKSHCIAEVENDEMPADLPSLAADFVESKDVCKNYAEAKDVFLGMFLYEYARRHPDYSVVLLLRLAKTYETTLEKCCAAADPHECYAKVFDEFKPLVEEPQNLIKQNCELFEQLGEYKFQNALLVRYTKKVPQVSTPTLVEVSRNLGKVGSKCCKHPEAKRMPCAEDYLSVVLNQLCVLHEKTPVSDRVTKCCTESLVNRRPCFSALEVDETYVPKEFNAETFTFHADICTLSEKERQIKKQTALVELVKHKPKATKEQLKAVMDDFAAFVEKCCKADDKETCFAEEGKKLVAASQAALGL
QUANTITY_MEASURED: PB (%)

## Input Would you mind telling me what PB value was observed for CC(C)(O)c1cn(-c2ccc(-c3cc(F)c(CO)c(S(C)(=O)=O)c3)cc2F)c(C(C)(C)c2c(Cl)cccc2Cl)n1 [BMS-852927] ?
## Output 96.6

## Input Would you mind telling me what PB value was observed for CC(C)(O)c1cn(-c2ccc(-c3ccc(CO)c(S(C)(=O)=O)c3)cc2)c(C(C)(C)c2ccccc2Cl)n1 ?
## Output 96.1

## Input Would you mind telling me what PB value was observed for CC(C)(O)c1cn(-c2ccc(-c3cccc(S(C)(=O)=O)c3)cc2)c(C(C)(C)c2c(Cl)cccc2Cl)n1 ?
## Output 97.9

## Input Would you mind telling me what PB value was observed for CC(C)(O)c1cn(-c2ccc(-c3cc(F)c(CO)c(S(C)(=O)=O)c3)cc2)c(C(C)(C)c2ccccc2Cl)n1 ?
## Output 95.5

## Input Would you mind telling me what PB value was observed for CC(C)(O)c1cn(-c2ccc(-c3cc(F)c(CO)c(S(C)(=O)=O)c3)cc2)c(C(C)(C)c2cccc(F)c2Cl)n1 ?
## Output 94.4

====

Measurement record for Retinoic acid receptor RXR-alpha/oxysterols receptor LXR-beta (Homo sapiens); quantity recorded: Ki.
QUANTITY_MEASURED: Ki (nM)

Example entries and their recorded answers appear below.
## Input Provide value of Ki for this record tested with Retinoic acid receptor RXR-alpha/oxysterols receptor LXR-beta (Homo sapiens): CC(C)(O)c1cn(-c2ccc(-c3cc(F)c(CO)c(S(C)(=O)=O)c3)cc2F)c(C(C)(C)c2c(F)cccc2Cl)n1
Sequence (P19793 whole entry): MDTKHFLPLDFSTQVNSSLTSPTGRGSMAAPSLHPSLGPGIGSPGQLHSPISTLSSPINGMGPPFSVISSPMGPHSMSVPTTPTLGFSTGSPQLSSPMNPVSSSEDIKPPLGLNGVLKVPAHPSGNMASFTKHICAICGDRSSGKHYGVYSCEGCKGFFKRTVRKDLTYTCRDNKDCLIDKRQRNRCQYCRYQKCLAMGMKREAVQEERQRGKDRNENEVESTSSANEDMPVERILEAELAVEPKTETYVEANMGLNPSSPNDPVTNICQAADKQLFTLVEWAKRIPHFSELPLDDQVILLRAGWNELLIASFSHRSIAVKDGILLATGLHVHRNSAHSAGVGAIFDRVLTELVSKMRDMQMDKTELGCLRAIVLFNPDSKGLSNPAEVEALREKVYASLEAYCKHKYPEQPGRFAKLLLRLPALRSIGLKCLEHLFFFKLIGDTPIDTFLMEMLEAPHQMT
Sequence (P55055 whole entry): as the sequence (P55055 whole entry) above
## Output 14

## Input Provide value of Ki for this record tested with Retinoic acid receptor RXR-alpha/oxysterols receptor LXR-beta (Homo sapiens): CC(c1c(Cl)cccc1Cl)c1nc(C(C)(C)O)cn1-c1ccc(-c2cc(F)c(CO)c(S(C)(=O)=O)c2)cc1F (configuration not stated)
## Output 13

## Input Provide value of Ki for this record tested with Retinoic acid receptor RXR-alpha/oxysterols receptor LXR-beta (Homo sapiens): CC(C)(O)c1cn(-c2ccc(-c3cccc(S(C)(=O)=O)c3)cc2)c(C(C)(C)c2c(Cl)cccc2Cl)n1
## Output 11

## Input Provide value of Ki for this record tested with Retinoic acid receptor RXR-alpha/oxysterols receptor LXR-beta (Homo sapiens): CC(C)(O)c1cn(-c2ccc(-c3cc(F)c(CO)c(S(C)(=O)=O)c3)cc2F)c(C(C)(C)c2ccccc2Cl)n1
## Output 18

## Input Provide value of Ki for this record tested with Retinoic acid receptor RXR-alpha/oxysterols receptor LXR-beta (Homo sapiens): CC(C)(O)c1cn(-c2ccc(-c3cc(F)c(CO)c(S(C)(=O)=O)c3)cc2Cl)c(C(C)(C)c2c(Cl)cccc2Cl)n1
## Output 48

[I] CC(O)c1ccc(-c2ccc(-n3cc(C(C)(C)O)nc3C(C)(C)c3ccccc3Cl)cc2)cc1S(C)(=O)=O (configuration not stated)
[II] CC(C)(O)c1cn(-c2ccc(-c3cc(F)c(CO)c(S(C)(=O)=O)c3)cc2)c(Cc2c(Cl)cccc2Cl)n1
## Input I would appreciate it if you could say which entry, I or II , has the lower Ki value. State the label of the item chosen.
## Output II
